Overview of recorded Survival for various molecules
- Tested on: Plasmodium berghei
- experiment summary: Antiplasmodial activity against Plasmodium berghei ANKA infected in NMRI mouse assessed as survival days at 3 mg/kg, po QD for 4 days
- Assay type: functional
- condition info: time 4 day
Note: unit days is implicit; provide only the numeric part.

The following molecules have reported results that may help.
Exam item: Return reported Survival; argument: O=C(NCCN1CCCC1)c1cc(NCCCCN2CCOCC2)nc2ccc(Cl)cc12
Marked response: 9

Exam item: Item O=C(NCCN1CCCC1)c1cc(NCCC2CCOCC2)nc2ccc(Cl)cc12 has what recorded Survival?
Marked response: 6

Exam item: Any idea what its Survival is? The molecule is O=C(NCCN1CCCC1)c1cc(-c2ccc(CN3CCOCC3)cc2)nc2ccc(F)cc12 [CABAMIQUINE]
Marked response: 25

Consider the record given below.
Exam item: Recorded Survival of O=C(NCCN1CCC1)c1cc(-c2ccc(CN3CCOCC3)cc2)nc2ccc(F)cc12 , please.
Marked response: 9.3
